assay-procedure: Antiinvasive activity in human PC3M cells expressing CTR assessed as inhibition of calcitonin-induced cell migration after 24 hrs by spheroid disaggregation assay
Format: functional, cell-based
stated-conditions: PC-3M
reported-metric: pEC50
# pEC50: negative log10 of molar concentration; output just the value

# return recorded pEC50 for input O=C1NC(=O)/C(=C/c2ccc(O)cc2)N1 [4-HYDROXYPHENYLMETHYLENE HYDANTOIN]
3.82

# return recorded pEC50 for input CCSc1ccc(/C=C2\NC(=O)NC2=O)cc1
4.52

====

assay-procedure: Antimetastatic activity against human PC3M cells expressing CTR assessed as reduction in migration area at 200 uM after 48 hrs by spheroid disaggregation assay
Type: functional, PC-3M
We begin with a simple list: items and their reported Activity.
# unit: um | format: bare number

Examples with their reported Activity follow.
{"given-smiles": "Cc1ccc(/C=C2\\NC(=O)NC2=O)c(F)c1F", "Activity (um)": 175}
{"given-smiles": "O=C1NC(=O)/C(=C/c2ccc(-c3cccs3)cc2)N1", "Activity (um)": 39}
{"given-smiles": "O=C1NC(=O)/C(=C/c2ccccc2-c2cccs2)N1", "Activity (um)": 50}
{"given-smiles": "O=C1NC(=O)/C(=C/c2ccccc2-c2ccccc2)N1", "Activity (um)": 56}
{"given-smiles": "N#Cc1cccc(/C=C2\\NC(=O)NC2=O)c1", "Activity (um)": 195}

# return recorded Activity for input O=C1NC(=O)/C(=C/c2cccc(-c3ccccc3)c2)N1
76

# return recorded Activity for input CCSc1ccc(/C=C2\NC(=O)NC2=O)cc1
15.5
